- experimentalTarget: T1, human immunoglobulin E (hIgE) (human, UniProt P01854-1 1-428)
- T1 construct: also called human IgE; Native IgE (Abcam)
- T1 sequence (P01854 whole entry): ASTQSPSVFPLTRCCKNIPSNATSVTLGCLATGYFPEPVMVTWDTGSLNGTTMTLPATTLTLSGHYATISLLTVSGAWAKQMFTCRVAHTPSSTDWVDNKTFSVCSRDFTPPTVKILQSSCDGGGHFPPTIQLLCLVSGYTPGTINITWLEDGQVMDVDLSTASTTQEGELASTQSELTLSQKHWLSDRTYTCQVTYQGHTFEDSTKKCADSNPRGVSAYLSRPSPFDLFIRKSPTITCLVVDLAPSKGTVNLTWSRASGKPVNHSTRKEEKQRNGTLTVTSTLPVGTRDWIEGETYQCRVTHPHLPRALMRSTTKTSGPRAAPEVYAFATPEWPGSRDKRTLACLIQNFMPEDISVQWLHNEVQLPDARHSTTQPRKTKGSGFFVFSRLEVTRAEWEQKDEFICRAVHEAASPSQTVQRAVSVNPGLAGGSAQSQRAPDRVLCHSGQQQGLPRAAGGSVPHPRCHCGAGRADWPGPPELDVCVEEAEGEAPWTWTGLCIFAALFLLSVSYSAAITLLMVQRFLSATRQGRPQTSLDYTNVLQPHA
- experiment: SPR (Biacore), pH 7.4
readoutType: kon (M⁻¹ s⁻¹)
Give the value, in units of M⁻¹ s⁻¹, as a plain number.

binder	readoutType	quantitativeReadout
Oma VH15W100b - VL3 (antibody, V domains shown) VH: EVQLVESGGGLVQPGGSLRLSCAVSGYSITSGHRWEWIRQAPGKGLEWVASIHYDGSTNYNPSVKGRITISRDDSKNTFYLQMNSLRAEDTAVYYCARATHYFGHHHFAVWGQGTLVTVSS VL: DIQLTQSPSSLSASVGDRVTITCRASQSVDYDGDSYMNWYQQKPGKAPKLLIEWGSYLRSGVPSRFSGSGSGTDFTLTISSLQPEDFATYYCQQNAEDPYTFGQGTKVEIK	kon	351000
Oma VH15W100b - VL3S31H (antibody, V domains shown) VH: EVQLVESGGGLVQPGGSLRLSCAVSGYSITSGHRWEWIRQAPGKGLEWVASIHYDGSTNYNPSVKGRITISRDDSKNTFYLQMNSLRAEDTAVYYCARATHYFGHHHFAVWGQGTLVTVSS VL: DIQLTQSPSSLSASVGDRVTITCRASQSVDYDGDHYMNWYQQKPGKAPKLLIEWGSYLRSGVPSRFSGSGSGTDFTLTISSLQPEDFATYYCQQNAEDPYTFGQGTKVEIK	kon	398000

Shift focus to the following entry.
kon for OMA VH15 - VL3D28H (antibody, V domains shown, also called OMA VH15 VL3D25H) VH: EVQLVESGGGLVQPGGSLRLSCAVSGYSITSGHRWEWIRQAPGKGLEWVASIHYDGSTNYNPSVKGRITISRDDSKNTFYLQMNSLRAEDTAVYYCARATHYFGHWHFAVWGQGTLVTVSS VL: DIQLTQSPSSLSASVGDRVTITCRASQSVDYHGDSYMNWYQQKPGKAPKLLIEWGSYLRSGVPSRFSGSGSGTDFTLTISSLQPEDFATYYCQQNAEDPYTFGQGTKVEIK ?
264000
